Every entry's value here was drawn from ChEMBL document CHEMBL4513216.

Experiment: Toxicity liver stage against HepG2, at 10uM
Assay type: cell-based
Parameters: test concentration 10 uM, cell line HepG2-A16-CD81EGFP
Conditions: human, HepG2-A16-CD81EGFP cells; read-out: INHIBITION
property: cytotoxicity at 10 µM (%)
Reply numerically in %, unit not repeated.

These recorded examples may help you get a feel for the data.
CC(C)N1[C@H](CN2CCCC2)C[C@@H]2CN(C(=O)c3ccoc3)CC[C@@H]21; -135
C[C@@H]1CN(S(=O)(=O)N2CCOCC2)C[C@@]1(O)C1CC1; 5.91
O=C(Nc1cc(-c2ccncc2)no1)C1CCC1; -12.6
O=C1NC(c2ccccc2)=N[C@@]12CC[C@@H]1CN(Cc3ccncc3)C[C@@H]12; 11.9
CCC(C)(C)NCc1nc(C(C)(C)NC(=O)OC(C)(C)C)no1; 2.35

Write down cytotoxicity at 10 µM measured for item `CCS(=O)(=O)N[C@H]1CN(Cc2noc(COC)n2)C[C@@H]1C1CC1`
-3.22

Write down cytotoxicity at 10 µM measured for item CC(c1ccccn1)N(C)Cc1ccc(CCC(C)(C)O)cc1 (centres undefined)
1.82

Write down cytotoxicity at 10 µM measured for item `CCS(=O)(=O)c1ncc(CN2CCSCC2)n1CCc1ccccc1`
-1.95

Write down cytotoxicity at 10 µM measured for item `CCN(CCc1nccs1)C(=O)c1sccc1C`
-0.682

Write down cytotoxicity at 10 µM measured for item `COCCC(=O)N1CC[C@@H](N2CCN(C)CC2)[C@@H]1Cc1ccccc1`
7.7

====

Assay: Toxicity liver stage against HepG2, at 10uM
Format: cell-based
Parameters: test concentration 10 uM, cell line HepG2-A16-CD81EGFP
Details: human, HepG2-A16-CD81EGFP cells; read-out: INHIBITION
property: cytotoxicity at 10 µM
Write your answer as a measured quantity: the number, then the unit.

These recorded examples may help you get a feel for the data.
c1ccc(-n2nnnc2CNCC2CCCN2c2cccnn2)cc1 (stereo not drawn); -4.14%
Cc1cc(C2CCCN(Cc3nnc(Cc4ccccc4)o3)C2)n[nH]1 (stereo not drawn); -5.78%
CC(C)CN(Cc1ccsc1)C(=O)CCCn1cncn1; -47.9%
Cc1nnc(NCc2cccc(OCC3CCCO3)c2)c(C#N)c1C (stereo not drawn); -33.8%
Cc1occc1C(=O)N1CCO[C@H]2[C@H](OCc3cccnc3)CC[C@@H]21; 4.84%
COc1ccc(CNC(=O)NCc2c(C)cc(C)[nH]c2=O)cc1; -3.22%

Write down cytotoxicity at 10 µM measured for item `CC1CCN(S(=O)(=O)NCc2ccccc2Cn2cccn2)CC1`
7.4%

Write down cytotoxicity at 10 µM measured for item CNc1cc(N2CCC(O)(CNC(=O)c3ccc(C)nc3)C2)ncn1 (stereo not drawn)
-25.3%

Write down cytotoxicity at 10 µM measured for item Cc1ccc(F)cc1C(=O)OCC1CCCN1C(N)=O (stereo not drawn)
5.01%

Write down cytotoxicity at 10 µM measured for item `Cc1nc[nH]c1CN1CCCN(c2nc3ccccc3s2)CC1`
33%

Write down cytotoxicity at 10 µM measured for item Cc1ccc(N2CCCC(NCc3ccc(C)s3)C2)nn1 (stereo not drawn)
-2.51%

Write down cytotoxicity at 10 µM measured for item `CCN1CCCN(c2ncccc2C(=O)N2CCCCC2)CC1`
-5.1%

Write down cytotoxicity at 10 µM measured for item O=C(C1CC1)N1CCC2(COCc3cnc(NCc4ccco4)nc32)C1 (stereo not drawn)
-1.08%

Write down cytotoxicity at 10 µM measured for item `O=C(Nc1ccccc1)N1C[C@@H]2OCCN(C(=O)c3ccco3)[C@@H]2C1`
-150%

Write down cytotoxicity at 10 µM measured for item `CCn1c(C)cc(C(=O)NCc2cccc(NS(C)(=O)=O)c2)c1C`
-2.6%

Write down cytotoxicity at 10 µM measured for item `CC(C)(C)c1ncc(C(=O)NCc2cccc(C(=O)N3CCCC3)c2)s1`
-4.57%

Write down cytotoxicity at 10 µM measured for item `O=C(Cn1ncc2c(c1=O)CCCCC2)Nc1cccc2[nH]ccc12`
0.417%

Write down cytotoxicity at 10 µM measured for item O=C1CC2(CCN(Cc3ccoc3)C2)CN1c1cncnc1 (stereo not drawn)
-69.4%

Write down cytotoxicity at 10 µM measured for item Cc1ccc(C(C(=O)NCCc2nc(C)cc(=O)[nH]2)N(C)C)cc1 (stereo not drawn)
1.92%

====

Assay: Toxicity liver stage against HepG2, at 10uM
Assay type: cell-based
Set-up: test concentration 10 uM, cell line HepG2-A16-CD81EGFP
Settings: human, HepG2-A16-CD81EGFP cells; read-out: INHIBITION
Recorded measurements of cytotoxicity at 10 µM, one per entry
Reply numerically in %, unit not repeated.

These recorded examples may help you get a feel for the data.
Cc1cc(C)c(CNC(=O)NCc2ccc3c(c2)OCCO3)c(=O)[nH]1; -11.6
c1ncn(CC2CCCN(Cc3noc(C4CC4)n3)C2)n1 (stereo unspecified); 0.428
Cc1cccc(CNCC2(O)CCCN(CC3CCCCC3)C2=O)n1 (stereo unspecified); -10.5
O=C(Cc1ccc(F)cc1)NCCNCC1CNc2ccnn2C1 (stereo unspecified); -3.47
COc1ccc(Cl)cc1NC(=O)CCC1CCCN(Cc2ncon2)C1 (stereo unspecified); -4.18

Here is another compound to look at.
Write down cytotoxicity at 10 µM measured for item CC(C)c1nc2n(n1)CC(NCc1nnc(-c3ccco3)o1)CC2 (stereo unspecified)
-9.78

====

Assay: Toxicity liver stage against HepG2, at 10uM
Type: cell-based
Parameters: test concentration 10 uM, cell line HepG2-A16-CD81EGFP
Details: human, HepG2-A16-CD81EGFP cells; read-out: INHIBITION
Recorded measurements of cytotoxicity at 10 µM, one per entry
Reply numerically in %, unit not repeated.

These recorded examples may help you get a feel for the data.
Nc1nc(CN2CCCC2Cn2cncn2)nc2ccccc12 (centres undefined); -11.7
Nc1nc2c(c(NC(Cn3cccn3)c3ccccc3)n1)CCNCC2 (centres undefined); -12.3
Cc1cn2c(n1)CCC(NC(=O)c1ccc(CS(C)(=O)=O)cc1)C2 (centres undefined); -2.19
O=C(NCCSC1CCCC1)c1cc(Cl)ccn1; -15.5
Nc1c(C(=O)C2CCCN(C(=O)C3CC3)C2)cnn1-c1ccc(F)cc1 (centres undefined); 6.12
CCC(C)C(=O)NCc1cccc(OCCN(C)C2CCOCC2)c1 (centres undefined); -0.114

Write down cytotoxicity at 10 µM measured for item `COc1ccc(Cc2ncc3c(n2)CN(C(=O)CO)C3)cc1`
0.624

Write down cytotoxicity at 10 µM measured for item `O=C(NCCO)C1(Cc2ccccc2-c2cccnc2)CCOCC1`
-31.8

Write down cytotoxicity at 10 µM measured for item CCC(C)(CNC(=O)Nc1nncs1)N1CCOCC1 (centres undefined)
-7.98

Write down cytotoxicity at 10 µM measured for item `Cc1nc(CN2CCCn3cnc(COC(C)C)c3C2)cs1`
-73.4

Write down cytotoxicity at 10 µM measured for item `Cc1ccc(C(=O)N2C[C@H]3CN(Cc4csc(C)n4)C[C@H]3C2)cn1`
-143

====

Assay: Toxicity liver stage against HepG2, at 10uM
Format: cell-based
Parameters: test concentration 10 uM, cell line HepG2-A16-CD81EGFP
Conditions: human, HepG2-A16-CD81EGFP cells; read-out: INHIBITION
property: cytotoxicity at 10 µM (%)
Reply numerically in %, unit not repeated.

CCc1nnsc1C(=O)N1CCCC(c2nc3ccccc3[nH]2)C1 (stereo unspecified); 4.52

Here is another molecule to look at.
Write down cytotoxicity at 10 µM measured for item CC(=O)N1N=C(c2cccs2)OC1C(=O)Nc1ccccc1 (stereo unspecified)
-5.58

====

Assay: Toxicity liver stage against HepG2, at 10uM
Type: cell-based
Parameters: test concentration 10 uM, cell line HepG2-A16-CD81EGFP
Conditions: human, HepG2-A16-CD81EGFP cells; read-out: INHIBITION
property: cytotoxicity at 10 µM (%)
Reply numerically in %, unit not repeated.

Cn1ccnc1CNc1ccc(F)c(N2CCCS2(=O)=O)c1; -1.45
Brc1cnc(NCCCOC2CCOCC2)nc1; -5.2
Cc1ccc(CNC2CCCN(Cc3noc(C4CC4)n3)C2)s1 (centres undefined); -6.01
Cc1ccc(C(=O)N2C[C@@H]3CN(c4ncccn4)C[C@@H]3C2)cc1; 9.34

Write down cytotoxicity at 10 µM measured for item CN(C)CCOC1CC2(CCN(c3cnccn3)CC2)c2ccccc21 (centres undefined)
-2.69

Write down cytotoxicity at 10 µM measured for item `O=c1ccn(Cc2nc(-c3ccccc3F)cs2)c(=O)[nH]1`
-1.2

====

Test: Toxicity liver stage against HepG2, at 10uM
Type: cell-based
Set-up: test concentration 10 uM, cell line HepG2-A16-CD81EGFP
Details: human, HepG2-A16-CD81EGFP cells; read-out: INHIBITION
property: cytotoxicity at 10 µM (%)
Reply numerically in %, unit not repeated.

These recorded examples may help you get a feel for the data.
CCn1c(C)nnc1CN(C)C1CCN(Cc2nccn2C)C1 (stereo unspecified); 17.8
CCc1[nH]c2c(CNc3nccc(N)n3)cc(F)cc2c1C; -8.36
O=C(CCc1nccs1)N1CCN(c2ccccn2)CC1; -19.7
Cn1nnnc1SCCNC(=O)c1cccc2ccnn12; -59.1
NCCn1nc(C2CCN(C(=O)Cc3ccccc3)C2)c2nccnc21 (stereo unspecified); -15.9

Write down cytotoxicity at 10 µM measured for item Fc1ccc2[nH]c3c(c2c1)CCN1C(c2ccncc2)N2CCC31CC2 (stereo unspecified)
4.67
